TGI values by entry
- System: SW-620 colon
- PROCEDURE DETAILS: NCI tumour cell line growth inhibition, 48 h
MEASURED PARAMETER: TGI

>>> result("O=[N+]([O-])/C(C(Cl)=C(Cl)Cl)=C(\\Nc1ccccc1)n1nnc2ccccc21")
"> 100 µM"
>>> result("C=C1C2CC(OC(C)=O)C3(C)C(c4ccoc4)OC(=O)[C@@H](O)[C@]13OC1C[C@H](OC(C)=O)C(C)(C)[C@H](CC(=O)OC)[C@]12C (stereo partly specified)")
"> 100 µM"
>>> result("CCOC(=O)c1c(-c2ccc(Br)cc2)ccn1C")
"> 10 µM"
>>> result("COC(=O)c1c[nH]c2c1-c1cc(C(=O)OCc3ccccc3)n(S(=O)(=O)c3ccc(C)cc3)c1C(=O)C2=O")
"0.576 µM"
>>> result("O=C(CN1CCOCC1)c1ccc2c(c1)oc(=O)n2CCN1CCCC1")
"> 100 µM"
>>> result("O=C(Cc1nc2ncccc2[nH]c1=O)c1c[nH]c2ccccc12")
"40.5 µM"
>>> result("Cc1ccc(N=NN(C)C(=O)C(C)N)cc1 (stereo unspecified)")
"> 100 µM"
>>> result("CCOC(=O)c1nc2ccccc2nc1Oc1cc(OC)c(OC)c(OC)c1")
"> 100 µM"
>>> result("CCN(CC)c1ccc2cc(-c3nnc(-c4ccccc4O)o3)c(=O)oc2c1")
"26.9 µM"
>>> result("O=c1c2cc(Cl)ccc2[nH]c2cc(O)cc(O)c12")
"> 10 µM"
>>> result("COc1cc(C2C3=C(COC3=O)Nc3c2ccc2c3CCCC2)cc2c1OCO2 (stereo unspecified)")
"> 100 µM"
>>> result("COC(=O)/C=C1/SC(N2N=C(c3cccs3)CC2c2ccc(F)cc2)=NC1=O (stereo unspecified)")
"5 µM"
>>> result("COC(=O)C1=C(C(=O)OC)SC(=C2S[C@@H]3[C@@H]4C[C@H]([C@@H]3S2)[C@H]2C(=O)OC(=O)[C@@H]42)S1")
"> 100 µM"
>>> result("C=C(CC(=O)O)C(=O)O (tested in a mixture with another compound)")
"> 50 µg/mL"
>>> result("CN1CCN(c2nc(NCCCNc3ccnc4cc(Cl)ccc34)c3ccccc3n2)CC1")
"12.8 µM"
>>> result("O=C(CC1(O)C(=O)Nc2ccccc21)c1ccc(O)cc1 (stereo unspecified)")
"> 100 µM"
>>> result("CC1Cc2cc(O)c(O)cc2-c2cc(O)c(O)cc2CC1C (stereo unspecified)")
"42.5 µM"
>>> result("C/C(=N\\NC(=S)N1CC2CCC(CC2)C1)c1cccc(C)n1")
"31.8 µM"
>>> result("NC(N)=Nc1nc2ccc([N+](=O)[O-])cc2[nH]1")
"> 100 µM"
>>> result("N#Cc1c(Cl)nc2ccccc2c1N=[N+]=[N-]")
"3.54 µM"
>>> result("Cc1[nH]nc2c1N=C(c1ccccc1F)c1cc(C(N)=O)ccc1N2")
"> 25 µM"

---

- System: TK-10 renal
- PROCEDURE DETAILS: NCI tumour cell line growth inhibition, 48 h
TGI values by entry
MEASURED PARAMETER: TGI

>>> result("C#CC1(O)c2ccccc2C(=O)c2ccccc21")
"> 100 µM"
>>> result("C=CC1(NS(=O)(=O)c2ccc(C)cc2)CCC(C(C)(C)C)CC1 (configuration not stated)")
"> 100 µM"
>>> result("CSc1nc(NC2OC(COC(C)=O)C(OC(C)=O)C(OC(C)=O)C2OC(C)=O)c(-c2csc(N)n2)c(=O)n1C (configuration not stated)")
"> 100 µM"
>>> result("CN(C)CC1CCCCCCCCCC(CN(C)C)C1=O (configuration not stated)")
"> 53.7 µM"
>>> result("COc1cccc2c1C(=O)c1c(O)c3c(c(O)c1C2=O)C[C@@](O)(C(=O)CO)CC3OC1CC(O)C(O)C(C)O1 (some centres not stated)")
"11.6 µM"
>>> result("O/N=C(\\CC(O)(C(F)(F)F)C(F)(F)F)c1cccc(Cl)c1")
"98.8 µM"
>>> result("CN(C)C=NCCN1CCOCC1")
"> 100 µM"
>>> result("Clc1ccc(-c2ccc(-c3nnc(COc4ccc(OCc5nnc(-c6ccc(-c7ccc(Cl)cc7Cl)o6)o5)c(Cl)c4)o3)o2)c(Cl)c1")
"> 100 µM"
>>> result("C[C@@H]1C2=CC[C@@]3(C)C(CCC3[C@H](C)[C@H]3C[C@@]4(C)O[C@@](c5cccnc5)(O3)OC4(C)C)[C@@H]2C2OC2[C@@]12CCC(=O)O2 (some centres not stated)")
"> 100 µM"
>>> result("O=C1NC(=O)/C(=C/c2ccc(S(=O)(=O)N/N=C\\C(O)C(O)C(O)C(O)CO)cc2)N1 (configuration not stated)")
"> 100 µM"
>>> result("CCCNC(=O)c1ccc(Cl)cc1Cl")
"> 100 µM"
>>> result("O=c1c(Br)cc2c(-c3ccccc3)c3cc(Br)c(O)c(Br)c3oc-2c1Br")
"> 100 µM"
>>> result("O=S(=O)(c1ccccc1)n1cc(C[P+](c2ccccc2)(c2ccccc2)c2ccccc2)c2ccccc21")
"16.9 µM"
>>> result("COc1ccc(-c2cc(-c3cc(Cl)cc(Br)c3O)[nH]c(=O)n2)cc1")
"47.3 µM"
>>> result("COc1ccc(/C(Cl)=C(\\c2ccc(OCCN(C)C)cc2)c2ccc(OC(=O)C(C)(C)C)cc2)cc1")
"32.3 µM"
>>> result("NCCSCc1ccccc1Cl")
"74 µM"
>>> result("COc1cc2ncnc(Nc3ccc4c(cnn4Cc4ccccc4)c3)c2cc1OC")
"> 25 µM"
>>> result("CCOC(=N)CC(=O)Nc1cccc(Cl)c1")
"> 100 µM"
>>> result("Clc1ccc2nc(-c3ccccc3)nc(Cl)c2c1")
"63.9 µM"
>>> result("Cc1sc(C)c2c1C(=O)CC2N (configuration not stated)")
"33.5 µM"
>>> result("COC(=O)C1C=NNC1C(=O)OC (configuration not stated)")
"> 100 µM"
>>> result("COc1cc(Nc2nnc3n2S(=O)(=O)c2cc(C)c(Cl)cc2S3)cc(OC)c1")
"81.3 µM"
